Assay: Cytotoxicity against feline CRFK cells assessed as reduction in cell viability by MTS assay
Type: cell-based, Felis catus
Settings: cat
assay_readout: MCC

## Task Using the record for `O=C(c1ccccc1)n1c(=O)c2ccccc2n(Cc2cn(C[C@H](OCc3ccccc3)[C@H](O)P(=O)(OCc3ccccc3)OCc3ccccc3)nn2)c1=O` , report its MCC.
## Result ≥ 4 µM
